Data provenance is PubChem BioAssay (NCI).

Assay: NCI Yeast Anticancer Drug Screen. Data for the bub3 strain (AID 167)
Conditions: S. cerevisiae bub3 mutant strain, at 50.0 µM, hits give high values
About 79,000 compounds went through this panel and 15% of them were active in at least one assay; those are over-represented in the sample as a whole.
Reported growth inhibition values for a set of molecules
Give just the numeric value; % need not be written.

CCN(c1ccccc1)S(=O)(=O)c1ccccc1N; -3.6

Lookup: Give recorded growth inhibition. O=c1[nH]nc(Cc2ccc(Cl)cc2)n1/N=C\CC/C=N\n1c(Cc2ccc(Cl)cc2)n[nH]c1=O
Found: -13.3

Lookup: Give recorded growth inhibition. CN(NC(=O)c1cccs1)C1=NCCN1
Found: 18.4

Lookup: Give recorded growth inhibition. CC1(C)OC2COC3OC(C)(C)OC3(CO)C2O1 (stereo not given)
Found: 20.5

Lookup: Give recorded growth inhibition. COc1cc(C2c3cc4c(c(OS(=O)(=O)O)c3CC3COC(=O)C32)OCO4)cc(OC)c1OC (stereo not given)
Found: 15

Lookup: Give recorded growth inhibition. CC1(c2ccccc2)CCCCC1OC(N)=O (stereo not given)
Found: 7.2

Lookup: Give recorded growth inhibition. C[N+]1=C(/C=C/c2ccnc3c(O)cccc23)C(C)(C)c2ccccc21
Found: -6.4

Lookup: Give recorded growth inhibition. CN(C)C(=O)C1OC1(C)c1ccccc1 (stereo not given)
Found: -1.3

Lookup: Give recorded growth inhibition. CNc1ccc(C(=O)O)cc1C
Found: -56.4

Lookup: Give recorded growth inhibition. CN(C)CCNC(=O)Cn1cnc2cccc([N+](=O)[O-])c2c1=O
Found: 20.9

Lookup: Give recorded growth inhibition. CCCCc1ccncc1
Found: 8.55

Lookup: Give recorded growth inhibition. CC/C(Cl)=N\OC(=O)Nc1ccccc1OC(F)(F)F
Found: 18.6

Lookup: Give recorded growth inhibition. O=C(Oc1ccc(-c2ccccc2)cc1)c1cccc([N+](=O)[O-])c1
Found: 27.5

Lookup: Give recorded growth inhibition. COc1ccc(NC(=O)ON(C)C)cc1
Found: 3.75

Lookup: Give recorded growth inhibition. CCOC(=O)/C=C/C(=O)OCC
Found: 6.65

Lookup: Give recorded growth inhibition. Cc1ccc(S(=O)(=O)N2c3ccccc3[C@H]3CCC=C[C@H]32)cc1
Found: 30.6

Lookup: Give recorded growth inhibition. NC1(c2ccccc2)C2CC3CC(C2)CC1C3 (stereo not given)
Found: 7.25

Lookup: Give recorded growth inhibition. COc1cc2c(cc1OC)C1(CCBr)C3CC4C(=CCOC5CC(=O)N2C1C54)CN3C(=O)Cc1ccccc1 (stereo not given)
Found: 4.75

Lookup: Give recorded growth inhibition. c1cc(Sc2nc(Sc3ccncc3)nc(Sc3ccncc3)n2)ccn1
Found: -9.7

Lookup: Give recorded growth inhibition. CNc1ccc(C)cc1S(=O)(=O)c1ccccc1[N+](=O)[O-]
Found: 47.1

Lookup: Give recorded growth inhibition. C[n+]1ccccc1C(=O)O
Found: 31.3

Lookup: Give recorded growth inhibition. Nc1nc(N)c(N=O)c(N)n1
Found: 3.5

Lookup: Give recorded growth inhibition. O=C(Nc1ccccc1)/C(N=Nc1ccccc1)=N\Nc1ccccc1
Found: 6.6

Lookup: Give recorded growth inhibition. CC(=O)c1cc2c(cc1C)C(C)=C(C)C2(C)C
Found: 0.65

Lookup: Give recorded growth inhibition. CCCCS(=O)(=O)CCCC
Found: -1.3

* * *

Test: NCI Yeast Anticancer Drug Screen. Data for the rad50 strain (AID 155);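 further: 0% = growth of vehicle-only cultures of the same strain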
Details: S. cerevisiae rad50 strain growth inhibition; at 50.0 µM
The panel holds about 79,000 compounds, 15% with a hit somewhere; the sample as a whole holds those more often. The source made the active and inactive calls. Rule as the data show it: active = growth inhibition above about 70%; inactive = the rest.
Could you please pick one outcome from this set? true (1) = active, false (0) = inactive

Lookup: Could you please tell me the result logged for O=C(O)CCNCC(=O)O in this assay?
Found: false (0)

Lookup: Could you please tell me the result logged for Cc1ccc(S(=O)(=O)NC(=O)c2ncn(C3OC(CO)C(O)C3O)c2N)cc1 (centres undefined) in this assay?
Found: false (0)

Lookup: Could you please tell me the result logged for CC1C(c2ccccc2O)c2cc3c(cc2OC1N1CCCC1)OCO3 (centres undefined) in this assay?
Found: false (0)

Lookup: Could you please tell me the result logged for CC(C)(C)c1cc(/C=N/NC(=S)Nc2ccccc2)cc(C(C)(C)C)c1O in this assay?
Found: false (0)

Lookup: Could you please tell me the result logged for COC(=O)C(CCc1ccc([N+](=O)[O-])cc1)(CCc1ccc([N+](=O)[O-])cc1)C(=O)OC in this assay?
Found: false (0)

* * *

Experiment: NCI Yeast Anticancer Drug Screen. Data for the cln2 rad14 strain (AID 165);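 further: 0% = growth equal to vehicle treated cultures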
Details: S. cerevisiae cln2 rad14 strain, at 50.0 µM, hits give high values
Description: Growth inhibition of yeast strains with defined genetic alterations is measured as a screen for potential anti-cancer activity. Selected strains with alterations in DNA damage repair or cell cycle control were exposed to compounds and growth inhibition was measured relative to vehicle treated controls. The strain used in this assay is cln2 rad14
This is part of a sample that, as a whole, favours compounds with a hit. Of some 79,000 tested, about 15% had one in any assay.
Think of -20% as a floor: if growth inhibition stands on it or above, it is yes (1); beneath it, no (0).

Consider the worked cases shown below.
CN(C)c1cc2c(cc1N(C)C)-c1ccccc1C2; yes (1)
CC(C)C(=O)CC1(O)C(=O)Nc2ccc([N+](=O)[O-])cc21 (stereo unspecified); no (0)
NNCCc1n[nH]c(=O)n1N; yes (1)

Lookup: Item C=CCN1C(=O)/C(=C/c2ccc(OCC(=O)O)cc2)SC1=S with growth inhibition of -20% or above?
Found: no (0)

Lookup: Item COc1ccc(/C=C/C(=O)C(CN(C)C)CN(C)C)cc1OC with growth inhibition of -20% or above?
Found: yes (1)

Lookup: Item O=C(O)c1nc(-c2ccccc2)[nH]c1C(=O)O with growth inhibition of -20% or above?
Found: yes (1)

* * *

Assay: NCI Yeast Anticancer Drug Screen. Data for the mlh1 rad18 strain (AID 175)
Conditions: S. cerevisiae mlh1 rad18 strain growth inhibition; at 50.0 µM; hits give high values
Description: Growth inhibition of yeast strains with defined genetic alterations is measured as a screen for potential anti-cancer activity. Selected strains with alterations in DNA damage repair or cell cycle control were exposed to compounds and growth inhibition was measured relative to vehicle treated controls. The strain used in this assay is mlh1 rad18
Compounds without any hit were thinned out: in the full panel of roughly 79,000, 15% have a hit.
value.kind: growth inhibition (%)
Give just the numeric value; % need not be written.

COc1ccc(/C=N/N2CN(C(C)C(=O)O)B(N(CCO)CCO)N=C2N)cc1OC (stereo not drawn); 20.9
CSc1ccc(NC(=O)Nc2ccc(Cl)cc2[N+](=O)[O-])cc1; 20.3

Kindly consider the entry below.
Lookup: Give recorded growth inhibition. CCCCCCCCCCCC(=O)N(C)CCS(=O)(=O)O
Found: 8.45

* * *

Experiment: NCI Yeast Anticancer Drug Screen. Data for the mec2-1 strain (AID 157)
Conditions: S. cerevisiae mec2-1 strain, at 50.0 µM, hits give high values
The panel holds about 79,000 compounds, 15% with a hit somewhere; the sample as a whole holds those more often.
Reported growth inhibition values for a set of compounds
Give just the numeric value; % need not be written.

Cc1ccc(C(CCCl)OC(C)C)cc1 (configuration not stated); 7.35

Lookup: Give recorded growth inhibition. Cc1no[n+]([O-])c1C(=O)NN
Found: 6.6

Lookup: Give recorded growth inhibition. CN(C)c1nc(N)nc(CS)n1
Found: 10.4

Lookup: Give recorded growth inhibition. CCc1c(CO)cnc(C)c1OP(=O)(O)O
Found: -39.5

Lookup: Give recorded growth inhibition. CC(=O)SSC12CC3CC(CC(C3)C1)C2
Found: -17.4

Lookup: Give recorded growth inhibition. O=S(=O)(NC1c2ccccc2Oc2ccccc21)c1ccc2ccccc2c1
Found: 11.1

Lookup: Give recorded growth inhibition. COC(=O)CCC(N)C(=O)NC(Cc1ccccc1)C(=O)NC(C)C(=O)NC1C(O)OC(CO)C(O)C1O (configuration not stated)
Found: 15.8

* * *

Reported growth inhibition values for a set of compounds
Assay: NCI Yeast Anticancer Drug Screen. Data for the sgs1 mgt1 strain (AID 161);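 further: 0% = growth of cultures given vehicle only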
Details: S. cerevisiae sgs1 mgt1 strain, at 50.0 µM, hits give high values
About 79,000 compounds went through this panel and 15% of them were active in at least one assay; those are over-represented in the sample as a whole. Where a SMILES comes first, the peptide text is derived from it. [ ]: non-standard residue; d: D form. The star is where a group is joined. ξ: configuration not given here. ξF = NC(Cc1ccccc1)C(=O)O; Cbz = O=C(OCc1ccccc1)*
Give just the numeric value; % need not be written.

// below: answered compounds
CCCCN(CCCC)C1(c2ccccc2)OC(c2ccccc2)=CC1=O (configuration not stated); -0.55
O=C1CSC(c2cccc(Cl)c2)N1CCN1C(=O)CSC1c1cccc(Cl)c1 (configuration not stated); -2.55
CC(=O)NNc1nc(C)c(C(=O)/C=C/C=C/c2ccccc2)s1; 10.7
CCOc1ccc2nc(NC(=O)C(=O)C(C#N)CC(C)(C)C=O)sc2c1 (configuration not stated); -17.6
CCOC(=O)CNC(=O)C(Cc1ccccc1)NC(=O)OCc1ccccc1 (configuration not stated) (Cbz-[ξF]-Gly-OEt); 4.55

Lookup: Give recorded growth inhibition. OCc1ccc(Cl)cc1Cl
Found: -11.4

Lookup: Give recorded growth inhibition. CC(=O)C1C(=O)NC(=O)C1=O (configuration not stated)
Found: -14.2
